TARGET_OR_SYSTEM: Fuc(a1-3)[Gal3S(b1-4)]GlcNAc6S
ASSAY: glycan array binding signal (z-score within array); higher = stronger binding
CONDITION_SUMMARY: glycan notation: IUPAC condensed, linker removed
About 410 targets per protein were measured; listed, in parts, are those with the strongest signals and a random draw of the rest.
EXPERIMENTAL_READOUT: glycan array binding signal (z-score)

binder="Mcg Light Chain Dimer (Homo sapiens), Q6PIK1 (protein) MAGFPLLLTLLTHCAGSWGQSLLTQPPSVSGTPGQRVTISCSGSSSNIGINYVYWYQQIPGTAPKLLISTNDQRPSGVPDRFSGSKSGTSASLAIGGLRSEDEAHYYCAAWDDSMSGPGYAFGTGTKVTVLRQPKANPTVTLFPPSSEELQANKATLVCLISDFYPGAVTVAWKADGSPVKAGVETTKPSKQSNNKYAASSYLSLTPEQWKSHRSYSCQVTHEGSTVEKTVAPTECS" experimental_readout="glycan array binding signal (z-score)" readout_value=4.13
binder="CpGal16 (Clavelina picta) (protein) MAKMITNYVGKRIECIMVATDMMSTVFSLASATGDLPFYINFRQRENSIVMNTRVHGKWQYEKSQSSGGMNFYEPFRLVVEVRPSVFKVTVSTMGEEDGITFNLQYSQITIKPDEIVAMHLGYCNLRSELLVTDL" experimental_readout="glycan array binding signal (z-score)" readout_value=-0.265
binder="Morniga (Morus nigra) (protein) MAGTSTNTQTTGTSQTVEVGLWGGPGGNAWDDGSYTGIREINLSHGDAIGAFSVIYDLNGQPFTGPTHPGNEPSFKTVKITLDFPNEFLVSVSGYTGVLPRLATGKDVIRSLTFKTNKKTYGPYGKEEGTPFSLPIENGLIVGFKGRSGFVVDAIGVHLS" experimental_readout="glycan array binding signal (z-score)" readout_value=-0.324
binder="CD23 (Homo sapiens) (protein) MELQVSSGFVCNTCPEKWINFQRKCYYFGKGTKQWVHARYACDDMEGQLVSIHSPEEQDFLTKHASHTGSWIGLRNLDLKGEFIWVDGSHVDYSNWAPGEPTSRSQGEDCVMMRGSGRWNDAFCDRKLGAWVCDRLATCTPPASEGSAESMGPDSRPDPDGRLPTPSAPLHS" experimental_readout="glycan array binding signal (z-score)" readout_value=0.491
